- targetEntity: HEK293 cells with stable expression of the GRIN1 gene and tetracycline-inducible expression of the GRIN2B gene (NMDA receptor, NR2B) (Homo sapiens, UniProt Q13224)
- Sequence (Q13224 27-1484, other chains not shown): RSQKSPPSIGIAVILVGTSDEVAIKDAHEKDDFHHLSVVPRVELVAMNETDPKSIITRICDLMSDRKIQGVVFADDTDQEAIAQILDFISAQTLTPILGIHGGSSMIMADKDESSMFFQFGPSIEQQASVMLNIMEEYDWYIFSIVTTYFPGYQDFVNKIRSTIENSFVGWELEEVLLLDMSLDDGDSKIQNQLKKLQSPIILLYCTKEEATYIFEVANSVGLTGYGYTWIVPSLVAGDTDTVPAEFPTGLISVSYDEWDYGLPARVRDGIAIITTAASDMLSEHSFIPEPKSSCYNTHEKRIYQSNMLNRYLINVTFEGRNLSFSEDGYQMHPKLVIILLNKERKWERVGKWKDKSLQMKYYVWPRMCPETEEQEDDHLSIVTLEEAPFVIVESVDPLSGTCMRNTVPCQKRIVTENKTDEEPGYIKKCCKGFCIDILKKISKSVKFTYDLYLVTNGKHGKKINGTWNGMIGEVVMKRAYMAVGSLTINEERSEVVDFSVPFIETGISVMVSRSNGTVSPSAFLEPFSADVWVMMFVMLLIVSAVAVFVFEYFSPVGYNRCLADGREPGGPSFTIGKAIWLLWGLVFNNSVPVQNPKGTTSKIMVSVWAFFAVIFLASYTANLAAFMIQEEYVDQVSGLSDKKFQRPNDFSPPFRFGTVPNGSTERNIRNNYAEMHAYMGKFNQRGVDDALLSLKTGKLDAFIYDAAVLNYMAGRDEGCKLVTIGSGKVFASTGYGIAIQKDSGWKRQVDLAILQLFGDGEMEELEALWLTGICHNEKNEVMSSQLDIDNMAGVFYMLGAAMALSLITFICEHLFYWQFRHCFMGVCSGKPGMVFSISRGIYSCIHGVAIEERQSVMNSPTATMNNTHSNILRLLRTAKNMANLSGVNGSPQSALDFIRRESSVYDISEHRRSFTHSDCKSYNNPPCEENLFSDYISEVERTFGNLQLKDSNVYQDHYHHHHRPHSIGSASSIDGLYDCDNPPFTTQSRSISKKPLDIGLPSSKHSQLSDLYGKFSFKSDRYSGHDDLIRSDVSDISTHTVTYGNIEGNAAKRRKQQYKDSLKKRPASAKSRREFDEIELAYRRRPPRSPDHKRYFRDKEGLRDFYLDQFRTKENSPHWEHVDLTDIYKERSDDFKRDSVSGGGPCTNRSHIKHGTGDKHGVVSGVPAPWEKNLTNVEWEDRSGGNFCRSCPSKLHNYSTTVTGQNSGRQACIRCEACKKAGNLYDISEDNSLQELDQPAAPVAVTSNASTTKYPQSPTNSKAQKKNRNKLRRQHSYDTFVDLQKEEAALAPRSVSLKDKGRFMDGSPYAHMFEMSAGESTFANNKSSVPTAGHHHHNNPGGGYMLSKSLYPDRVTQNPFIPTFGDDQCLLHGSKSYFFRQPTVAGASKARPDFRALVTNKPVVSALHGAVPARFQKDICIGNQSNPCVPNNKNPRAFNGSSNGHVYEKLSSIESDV
- test: Fluo-8 Ca2+ flux assay: reversal of Ro 25-6981-mediated suppression of the Ca2+ response to co-agonist (glutamate/glycine); also: test concentration or dose not given here
- Assay type: cell-based
- testSettings: reversal of the Ro 25-6981 suppression of the Ca2+ response to co-agonist (glutamate/glycine)
observedProperty: Response Recovered (%)

compound | observedProperty | valueReported
C/C(=N/O)c1cn(CC(=O)N2CCC(F)C2)c(=O)c2c(-c3ccc(F)c(C(F)(F)F)c3)csc12 (centres unmarked) [Example 135] | Response Recovered (%) | 11
CCn1cc(-c2ccc(F)c(C(F)(F)F)c2)c2c(=O)n(CC(=O)N3CCC(F)C3)ccc21 (centres unmarked) [Example 239] | Response Recovered (%) | 86
O=C(Cn1ccc2scc(-c3ccc(Cl)c(Cl)c3)c2c1=O)N1CC(F)C1 [Example 33] | Response Recovered (%) | 54

[a] Cc1cn(CC(=O)N2CCC(F)C2)c(=O)c2c(-c3ccc(F)c(Cl)c3)cc(Br)n12 (centres unmarked) [Example 415]
[b] O=C(Cn1ccc2scc(-c3ccc(F)c(C(F)(F)F)c3)c2c1=O)N1CCC(F)C1 (centres unmarked) [Example 11]
[c] CC1(F)CN(C(=O)Cn2ccc3scc(-c4cnc(C#N)c(Cl)c4)c3c2=O)C1 [Example 136]
[d] CC1(F)CN(C(=O)Cn2cnn3cnc(-c4ccc(Cl)c(Cl)c4)c3c2=O)C1 [Example 425]
Prompt: Ranking field: Response Recovered (%); order: falling. Labels, requested order.
Response: b, a, d, c
(b: 99%, a: 52%, d: 27%, c: 17%)

###

- targetEntity: HEK293 cells with stable expression of the GRIN1 gene and tetracycline-inducible expression of the GRIN2B gene (NMDA receptor, NR2B) (Homo sapiens)
- test: Fluo-8 Ca2+ flux assay: reversal of Ro 25-6981-mediated suppression of the Ca2+ response to co-agonist (glutamate/glycine)
- Format: cell-based
- testSettings: reversal of the Ro 25-6981 suppression of the Ca2+ response to co-agonist (glutamate/glycine)
observedProperty: Response Recovered (%)

compound | valueReported
CCn1cc(-c2ccc(Cl)c(C(F)(F)F)c2)c2c(=O)n(CC(=O)N3CCCC3)cnc21 [Example 157] | 70
O=C(Cn1ccc2scc(-c3ccc(F)c(C(F)(F)F)c3)c2c1=O)N1CC(F)(C2CC2)C1 [Example 45] | 12
Cn1cc(-c2ccc(Cl)cc2)c2c(=O)n(CC(=O)N3CCCC3)cnc21 [Example 151] | 17
O=C(Cn1cnc2[nH]cc(-c3ccc(Cl)cc3)c2c1=O)N1CCCC1C(F)(F)F (centres unmarked) [Example 152] | 10

[I] O=C(Cn1ccn2c(C3CC3)nc(-c3ccc(Cl)c(Cl)c3)c2c1=O)N1CCC(F)C1 (centres unmarked) [Example 433]
[II] Cc1cc(-c2csc3ccn(CC(=O)N4CC(F)(CF)C4)c(=O)c23)cnc1F [Example 89]
[III] CC1(F)CN(C(=O)Cn2ccc3c(c(-c4ccc(F)c(Cl)c4)cn3CCF)c2=O)C1 [Example 281]
[IV] CC(C)(O)c1cn(CC(=O)N2CCC(F)C2)c(=O)c2c(-c3ccc(F)c(C(F)(F)F)c3)csc12 (centres unmarked) [Example 133]
Prompt: Reorder the items by Response Recovered (%), least to greatest. Labels, requested order.
Response: IV, II, I, III

###

- targetEntity: HEK293 cells with stable expression of the GRIN1 gene and tetracycline-inducible expression of the GRIN2B gene (NMDA receptor, NR2B) (Homo sapiens)
- test: Fluo-8 Ca2+ flux assay: reversal of Ro 25-6981-mediated suppression of the Ca2+ response to co-agonist (glutamate/glycine)
- Assay type: cell-based
- testSettings: reversal of the Ro 25-6981 suppression of the Ca2+ response to co-agonist (glutamate/glycine)
observedProperty: Response Recovered (%)

In the examples that follow, each entry is paired with its recorded Response Recovered (%).
compound | Response Recovered (%)
O=C(Cn1ccc2scc(-c3ccc(F)c(C(F)(F)F)c3)c2c1=O)N1CC[C@H](F)C1 | 103
O=C(Cn1ccc2c(c(-c3ccc(F)c(C(F)(F)F)c3)cn2CC(F)F)c1=O)N1CCC(F)C1 (stereo not shown) | 71
CCC1(F)CN(C(=O)Cn2ccc3scc(-c4cnc(Cl)c(Cl)c4)c3c2=O)C1 | 78
NC(=O)Cn1ccc2[nH]cc(-c3ccc(F)c(Cl)c3)c2c1=O | −1

[1] O=C(Cn1ncc2scc(-c3ccc(Cl)c(C(F)(F)F)c3)c2c1=O)N1CC(F)(F)C1
[2] CCOCc1cn(CC(=O)N2CCC(F)C2)c(=O)c2c(-c3ccc(F)c(C(F)(F)F)c3)csc12 (stereo not shown)
[3] O=C(Cn1ccn2ccc(-c3ccc(Cl)c(Cl)c3)c2c1=O)N1CC(F)(CF)C1
[4] O=C(Cn1cc(N2CCC2)c2scc(-c3ccc(F)c(C(F)(F)F)c3)c2c1=O)N1CCC(F)C1 (stereo not shown)
Prompt: Ranking field: Response Recovered (%); order: falling. Labels, requested order.
Response: 3, 2, 1, 4
(3: 130%, 2: 48%, 1: 20%, 4: 8.3%)

[I] CC1(F)CN(C(=O)Cn2ccn3cnc(-c4ccc(F)c(C(F)(F)F)c4)c3c2=O)C1
[II] O=C(Cn1ccc2scc(-c3ccc(Cl)c(Cl)c3)c2c1=O)N1CC2C(C1)C2(F)F (stereo not shown)
[III] CC1(F)CN(C(=O)Cn2ccc3c(c(-c4ccc(F)c(C(F)(F)F)c4)cn3C3CC3)c2=O)C1
Prompt: Ranking field: Response Recovered (%); order: falling. Labels, requested order.
Response: III, I, II
(III: 140%, I: 68%, II: 26%)

[1] Cn1cc(-n2cc(-c3ccc(F)c(Cl)c3)c3c(=O)n(CC(=O)N4CC(C)(F)C4)ccc32)cn1
[2] Cc1cc(-c2csc3ccn(CC(=O)N4CC(C)(F)C4)c(=O)c23)cnc1Cl
[3] O=C(Cn1cnc2csc(-c3ccc(Cl)cc3)c2c1=O)N1CC(F)(F)C1
[4] O=C(Cn1ccc2c(c(-c3ccc(F)c(C(F)(F)F)c3)cn2CO)c1=O)N1CCC(F)C1 (stereo not shown)
Prompt: Reorder the items by Response Recovered (%), least to greatest. Labels, requested order.
Response: 3, 2, 4, 1

###

- targetEntity: HEK293 cells with stable expression of the GRIN1 gene and tetracycline-inducible expression of the GRIN2B gene (NMDA receptor, NR2B) (Homo sapiens, UniProt Q13224)
- test: Fluo-8 Ca2+ flux assay: reversal of Ro 25-6981-mediated suppression of the Ca2+ response to co-agonist (glutamate/glycine); also: test concentration or dose not given here
- Format: cell-based
- testSettings: reversal of the Ro 25-6981 suppression of the Ca2+ response to co-agonist (glutamate/glycine)
observedProperty: Response Recovered (%)

cpdSmiles | unitsText | valueReported
O=C(Cn1ccc2scc(-c3ccc(F)c(Cl)c3)c2c1=O)N1CCCC1 | % | 60

[P] CC1(O)CN(C(=O)Cn2ccc3scc(-c4ccc(F)c(Cl)c4)c3c2=O)C1
[Q] O=C(Cn1cnc2c(c(-c3ccc(Cl)c(F)c3)cn2C2CC2)c1=O)N1CCCC1
[R] Cc1cn(CC(=O)N2CC(C)(F)C2)c(=O)c2c(-c3ccc(F)c(Cl)c3)ccn12
Prompt: Reorder the items by Response Recovered (%), least to greatest. Labels, requested order.
Response: P, Q, R
(P: 10%, Q: 36%, R: 110%)

###

- targetEntity: HEK293 cells with stable expression of the GRIN1 gene and tetracycline-inducible expression of the GRIN2B gene (NMDA receptor, NR2B) (Homo sapiens, UniProt Q13224)
- test: Fluo-8 Ca2+ flux assay: reversal of Ro 25-6981-mediated suppression of the Ca2+ response to co-agonist (glutamate/glycine); also: test concentration or dose not given here
- Type: cell-based
- testSettings: reversal of the Ro 25-6981 suppression of the Ca2+ response to co-agonist (glutamate/glycine)
observedProperty: Response Recovered (%)

compound | valueReported
CCC1(F)CN(C(=O)Cn2ccc3scc(-c4cnc(C#N)c(Cl)c4)c3c2=O)C1 [Example 137] | 22

[I] CC1(O)CN(C(=O)Cn2ccc3scc(-c4ccc(Cl)c(Cl)c4)c3c2=O)C1 [Example 61]
[II] COCn1cc(-c2ccc(F)c(Cl)c2)c2c(=O)n(CC(=O)N3CCC(F)C3)ccc21 (centres unmarked) [Example 246]
[III] Cc1cn(CC(=O)N2CC(C)(F)C2)c(=O)c2c(-c3ccc(Cl)c(Cl)c3)ccn12 [Example 419]
[IV] Cc1cn(CC(=O)N2CCC(F)C2)c(=O)n2c(-c3ccc(F)c(Cl)c3)cnc12 (centres unmarked) [Example 452]
Prompt: Ranking field: Response Recovered (%); order: falling. Labels, requested order.
Response: III, II, I, IV
(III: 110%, II: 34%, I: 16%, IV: 7.5%)

###

- targetEntity: HEK293 cells with stable expression of the GRIN1 gene and tetracycline-inducible expression of the GRIN2B gene (NMDA receptor, NR2B) (Homo sapiens)
- test: Fluo-8 Ca2+ flux assay: reversal of Ro 25-6981-mediated suppression of the Ca2+ response to co-agonist (glutamate/glycine)
- Type: cell-based
- testSettings: reversal of the Ro 25-6981 suppression of the Ca2+ response to co-agonist (glutamate/glycine)
observedProperty: Response Recovered (%)

molecule | Response Recovered (%)
O=C(Cn1cnc2csc(-c3ccc(F)c(Cl)c3)c2c1=O)N1CC(F)(F)C1 | 39
CCn1cc(-c2ccc(Cl)c(Cl)c2)c2c(=O)n(CC(=O)N3CCC(F)C3)ccc21 (centres unmarked) | 33
O=C(Cn1nnc2scc(-c3ccc(Cl)c(C(F)(F)F)c3)c2c1=O)N1CCCC1 | 8
N=C(NO)c1cn(CC(=O)N2CCC(F)C2)c(=O)c2c(-c3ccc(F)c(C(F)(F)F)c3)csc12 (centres unmarked) | 33
O=C(Cn1ccc2ccc(-c3ccc(Cl)c(Cl)c3)cc2c1=O)N1CCC(F)C1 (centres unmarked) | 2
O=C(Cn1ccc2cccc(-c3ccc(Cl)c(F)c3)c2c1=O)N1CCC(F)C1 (centres unmarked) | 25
O=C(Cn1cnc2[nH]cc(-c3ccc(C(F)(F)F)c(Cl)c3)c2c1=O)N1CCC(F)C1 (centres unmarked) | 63
O=C(Cn1cnc2csc(-c3ccc(Cl)cc3)c2c1=O)N1CCCC1 | 18
O=C(Cn1ccc2ncc(-c3ccc(F)c(C(F)(F)F)c3)n2c1=O)N1CCC(F)C1 (centres unmarked) | 14
CN(C)Cc1cn(CC(=O)N2CCC(F)C2)c(=O)c2c(-c3ccc(Cl)c(Cl)c3)csc12 (centres unmarked) | 70

[I] COCc1cn(CC(=O)N2CCC(F)C2)c(=O)c2c(-c3ccc(F)c(C(F)(F)F)c3)csc12 (centres unmarked)
[II] O=C(Cn1ccc2scc(-c3ccc(Cl)c(Cl)c3)c2c1=O)N1CCC(F)C1 (centres unmarked)
Prompt: Record comparison, field Response Recovered (%): mark the lower of I and II . Your answer should be the label of the entry you select.
Response: I
(I: 46%, II: 102%)

[I] O=C(Cn1cnc2csc(-c3ccc(Cl)c(C(F)(F)F)c3)c2c1=O)N1CC(F)(F)C1
[II] Cc1cn(CC(=O)N2CCC(F)C2)c(=O)c2c(-c3ccc(F)c(Cl)c3)ccn12 (centres unmarked)
Prompt: Record comparison, field Response Recovered (%): mark the lower of I and II . Your answer should be the label of the entry you select.
Response: I
(I: 39%, II: 112%)

[I] CC1(F)CN(C(=O)Cn2ccc3scc(-c4ccc(F)c(C(F)(F)F)c4)c3c2=O)C1
[II] O=C(Cn1cnc2cccc(-c3ccc(Cl)cc3)c2c1=O)N1CCCC1F (centres unmarked)
Prompt: Record comparison, field Response Recovered (%): mark the lower of I and II . Your answer should be the label of the entry you select.
Response: II
(II: 9%, I: 160%)

Reference source: patent US12162890B2
